Molecular target: T1, HLA-B*44:05 (human)
T1 construct: also called peptide-receptive MHC class I molecule
Assay: UV peptide exchange, anti-b2m ELISA
binders and their reported peptide exchange yield

Guide cases for peptide exchange yield, answers given:
>>> reported("VEQINISQDW")
"> 75%"
>>> reported("EEWEWIQKL")
"> 75%"
>>> reported("LEVLHQGQW")
"50 to 75%"
>>> reported("SEILRVTLY")
"50 to 75%"
>>> reported("AEVGDIIKVHF")
"50 to 75%"

Item under review: KEPSQSCIAQY . Reported peptide exchange yield?
10 to 20%

Next entry: KEFGLDSVEL
50 to 75%

Next entry: SESDGIEQL
50 to 75%
